Give TGI for every item shown.
Tested on: A549 NSCLC
Assay: NCI tumour cell line growth inhibition, 48 h

Here is how some compounds turned out for TGI.
NC1CCC[C@H]1O (stereo partly specified) ... > 100 µM
O=C1Cc2c([nH]c3ccc([N+](=O)[O-])cc23)-c2ccccc2N1 ... > 56.8 µM
Cc1ccc(NCCN2CCCCC2)c2c(=O)c3ccccc3sc12 ... 2.97 µM

List TGI for every entry below, keeping the order given.
1. O=C1c2ccccc2C(=O)c2c1ccc(C(Br)Br)c2Cl
2. CC(=O)NC(Cc1cnc[nH]1)C(=O)N1CCCC1C(N)=O (stereo unspecified)

Result:
1: 32.3 µM; 2: > 100 µM

---

Tested on: SW-620 colon
Experiment: NCI tumour cell line growth inhibition, 48 h
Give TGI for every item shown.
Give bare numbers, in µM.

CS(=O)(=O)Nc1ccc(Nc2c3ccccc3nc3cc(N)ccc23)cc1 ... 30
N#Cc1c(N)nc(NCc2ccccc2)c(C#N)c1-c1ccc(Cl)cc1 ... 96.9
O=c1ssc2ncccc12 ... 43.6
CCCCCCCc1c(Cl)nc(Cl)nc1Cl ... 6.21
COc1ccc2c(c1)CN1C(=N2)CSC1c1c(Cl)cccc1[N+](=O)[O-] (configuration not stated) ... 50.6
NCCCCCCn1c2c(c3ccccc3c1=O)C(=O)c1ccccc1-2 ... 3.16

Query compound follows.
Field TGI (system: SW-620 colon) for entry OCC#Cc1ccccc1C#CCCCCCCC#Cc1ccccc1C#CCO = 41.6

---

System: MCF7 breast
Test: NCI tumour cell line growth inhibition, 48 h
measure-name: TGI (µM)
Answers are plain numbers, in µM.

Here is how some compounds turned out for TGI.
O=C1/C(=C/c2ccc(O)c(O)c2)COc2ccc(-c3ccccc3)cc21 ... 5.06
CS(=O)(=O)Nc1ccc(Nc2c3ccccc3nc3cc(N)ccc23)cc1 ... 9.16
O=C(CCN1CCCCC1)Nc1ccc2sc3ccccc3c(=O)c2n1 ... 57.5

Query compound follows.
// TGI lookup, compound = CCCCCc1cc2cc3c(c(O)c2c(=O)[nH]1)C1(CC3)C(O)=c2c(=O)c3c(=O)cc(OC)c(=O)c=3c(=O)c2=C1O (stereo not given) , result: 2.23

---

Give TGI for every item shown.
Tested on: KM12 colon
Experiment: NCI tumour cell line growth inhibition, 48 h

Here is how some compounds turned out for TGI.
COS(=O)(=O)OCCC(NC(=O)OCc1ccccc1)C(=O)OCc1ccccc1 (stereo not given) ... > 100 µM
CCCCN(C(=O)c1ccccc1)C1CCC(=O)c2[nH]c3ccccc3c21 (stereo not given) ... > 100 µM
CCOC(=O)C(NC(=O)CC)(Nc1ccc(S(=O)(=O)Nc2ncccn2)cc1)C(F)(F)F (stereo not given) ... > 100 µM
Cc1cc2cc3c(Cl)c(CCCl)c(C)nc3cc2c(Cl)c1CCCl ... 46.4 µM
CCCCCCCCCCCC1=NCCN1 ... > 100 µM
C=CS(=O)(=O)c1c2cc(OC)ccc2nc2ccc(OC)cc12 ... 28.8 µM
CC1C2C=CC1C(c1c3ccc(=O)c(O)c-3oc3c(O)c(O)ccc13)C2C(=O)O (stereo not given) ... > 100 µM
Cc1ccc(S(=O)(=O)NC2=NCCN2C(=S)SN2CCn3c2nsc3=S)cc1 ... 32.7 µM
Cn1c2c(c3ccc(-c4ccn[nH]4)cc3c1=O)C(=O)c1ccccc1-2 ... > 100 µM
CCC1=C(C)c2cc3[n-]c(cc4nc(c(C=O)c5[n-]c(cc1n2)c(C)c5CC)C(C)=C4CC)c(C)c3CC.[Ni+2] ... > 100 µM

List TGI for every entry below, keeping the order given.
1. O=C(CCc1n[nH]c(=S)o1)Nc1cc(Cl)c(Cl)cc1Cl
2. N/C(=N/N=C/c1cc(Br)cc(Br)c1O)NO
3. CC1=NN(c2nc(N)nc(COCc3nc(N)nc(N4N=C(C)CC4(C)C)n3)n2)C(C)(C)C1
4. CCOc1ccc(N=NC2C(=O)N(C(=O)CC(=O)Nc3ccc(C)cc3)N=C2C)cc1 (stereo not given)
5. CC(C)OP(=O)(OC(C)C)C([CH2][Sn]([CH3])([CH3])[Cl])P(=O)(OC(C)C)OC(C)C
6. C[N+](C)(C)CC(=O)N/N=C(/Cc1nc2ccc(Cl)cc2[nH]c1=O)C1=NS(=O)(=O)c2cc(S(N)(=O)=O)c(Cl)cc2N1
7. CN(C)c1ccc(/C=c2/c3ccccc3n3c2cc(-c2ccc(Cl)cc2)[n+]3C)cc1

Result:
1: > 100 µM; 2: 51.4 µM; 3: > 100 µM; 4: > 100 µM; 5: 41.9 µM; 6: > 100 µM; 7: 0.264 µM

List TGI for every entry below, keeping the order given.
1. C=C1C[C@@H](O)[C@@H](Br)C(C)(C)[C@@]12C=CC(O)(CBr)CC2 (stereo not given in full)
2. O=S(=O)(O)c1ccc(N=Nc2ccc(N=Nc3c(O)ccc4ccccc34)c(S(=O)(=O)O)c2)cc1
3. O=S(=O)(O)c1cc(N=Nc2c(O)ccc3ccccc23)c2c(S(=O)(=O)O)cccc2c1
4. COc1ccc(N2C(=O)C3c4[nH]c5ccc(C)cc5c4C4CCC(c5ccccc5)CC4C3C2=O)cc1 (stereo not given)
5. Cc1ccc(NC(=O)C(=O)C(C2C(C)CC(=O)C2CC(=O)O)[N+](=O)[O-])cc1 (stereo not given)
6. CC(C)(C)c1cc(Cc2ccc([N+](C)(C)C)cc2)c(O)c(C(C)(C)C)c1
7. CSCCC(NC(=O)CNC(=O)C(CC(=O)O)NC(=O)C(NC(=O)C(NC(=O)C(NC(=O)CNC(=O)C(CCC(N)=O)NC(=O)C(CCSC)NC(=O)C(CC(=O)O)NC(=O)C(C)NC(=O)C(C)NC(=O)C(NC(=O)C(CO)NC(=O)C(N)CC(C)C)C(C)O)C(C)C)C(C)C)C(C)O)C(=O)NC(C)C(=O)NC(CO)C(=O)NCC(=O)NC(CC(C)C)C(=O)NC(CC(=O)O)C(=O)NC(CCCCN)C(=O)NC(CC(=O)O)C(=O)NC(Cc1ccc(O)cc1)C(=O)NC(CC(C)C)C(=O)NC(CCCCN)C(=O)N1CCCC1C(=O)NC(CC(=O)O)C(=O)NC(CC(=O)O)C(=O)O (stereo not given)

Result:
15.1 µM
> 100 µM
> 100 µM
> 100 µM
> 100 µM
29.6 µM
> 82.5 µM

List TGI for every entry below, keeping the order given.
1. C[C@H](O)CNc1cc(-c2[nH]c3cccnc3c2-c2ccc(F)cc2)ccn1
2. COc1ccc2c(c1)CN1C(=N2)CSC1c1c(Cl)cccc1[N+](=O)[O-] (stereo not given)
3. COP1(=O)OCc2cnccc2O1 (stereo not given)
4. O=C1C(=O)c2c(O)ccc(O)c2C(O)=C1Cl

Result:
> 25 µM
44.2 µM
> 100 µM
> 100 µM

List TGI for every entry below, keeping the order given.
1. CC1CCCP(=O)(c2ccccc2)CC1 (stereo not given)
2. Cc1cccc(-c2nnc3s/c(=C\c4ccc5c(c4)OCO5)c(=O)n23)c1
3. O=C(Nc1ccc(Cl)cc1)Nc1ccc(Oc2nncc3ccccc23)cc1
4. N#Cc1ccc(Oc2nc3ccccc3nc2C(=O)O)cc1

Result:
> 100 µM
> 100 µM
2.65 µM
> 100 µM

List TGI for every entry below, keeping the order given.
1. O=C(COc1cccc(/C=C2/Oc3ccccc3C2=O)c1)Nc1nccs1
2. CCN(CC)CCNC(=O)c1cn2ncnc(Oc3ccc(NC(=O)Nc4ccc(Cl)c(C(F)(F)F)c4)cc3)c2c1C
3. CC(C)=CCC/C(C)=C/CC/C(C)=C/CCN(C)CCO
4. Cc1occc(=O)c1O
5. COc1ccc2c(c1)OCC1c3cc(O)ccc3OC21 (stereo not given)
6. CCCCCc1cc2cc3c(c(O)c2c(=O)[nH]1)C1(CC3)C(O)=c2c(=O)c3c(=O)cc(OC)c(=O)c=3c(=O)c2=C1O (stereo not given)

Result:
["32.9 µM", "3.25 µM", "7.77 µM", "> 100 µM", "> 100 µM", "5.4 µM"]

List TGI for every entry below, keeping the order given.
1. CN(C)C=Nc1ccc2nonc2c1
2. Cc1cc2c(c(C)c1O)C(C)(C)CN2C(=O)C(C)(C)C

Result:
> 100 µM
> 100 µM

---

Tested on: MDA-MB-435
Write down one outcome, taken from t = active, f = inactive

Solved cases (4 shown):
CN1C(=O)/C(=C/c2c(Cl)[nH]c3ccccc23)c2ccccc21 ... f
CCN(CC)CCNC(=O)c1cn2ncnc(Oc3ccc(NC(=O)Nc4ccc(Cl)c(C(F)(F)F)c4)cc3)c2c1C ... f
NCCCCCCn1c2c(c3ccccc3c1=O)C(=O)c1ccccc1-2 ... f
COc1cc(C2C3=C(COC3=O)Oc3cc4c(cc32)OCO4)cc(OC)c1OC (stereo not given) ... t

Shifting focus to the compound that follows.
Ask: // return assay outcome for O=C(Nc1ccc(Cl)cc1)Nc1ccc(Oc2nncc3ccccc23)cc1
Result: t
